System: NCI-H226
Assay: NCI tumour cell line growth inhibition, 48 h
The source made the active and inactive calls. No stated cut-off is given here; in the data, active = GI50 up to about 1.1 µM and inactive = higher.
Your response should consist of one outcome taken from label 1 for active, label 0 for inactive

Query block: Test call, this compound: "O=C(O)CCSCc1ccccc1"
Result block: label 0

Query block: Test call, this compound: "CN(C)CCCNCc1cccc2ccccc12"
Result block: label 0

Query block: Test call, this compound: "COc1nc2c(c(=O)n1C)N[C@@H]1[C@@H](O)[C@H](O)CO[C@@H]1N2"
Result block: label 0

Query block: Test call, this compound: "CC(=O)O[C@H]1C(=O)[C@@]2(C)[C@H]([C@H](OC(=O)c3ccccc3)[C@]3(O)C[C@H](OC(=O)[C@H](O)[C@@H](NC(=O)c4ccccc4)C4CCCCC4)C(C)=C1C3(C)C)[C@]1(OC(C)=O)CO[C@@H]1C[C@@H]2O"
Result block: label 1

Query block: Test call, this compound: "N#Cc1cccc(-n2[nH]c(=O)ccc2=O)c1"
Result block: label 0

Query block: Test call, this compound: "Cn1c(=O)c2c(nc(-n3nc(-c4ccc(Cl)cc4)cc3N)n2C)n(C)c1=O"
Result block: label 0

Query block: Test call, this compound: "N#CCCC1(CCC#N)CCCCCCCCC(CCC#N)(CCC#N)C(=O)C1=O"
Result block: label 0

Query block: Test call, this compound: "CO[C@@](c1ccccc1)(c1nc(C#N)c(N)o1)C(F)(F)F"
Result block: label 0

Query block: Test call, this compound: "COc1ccc(Br)c(/C=N\c2cccc3cc(OC)c(OC)cc23)c1"
Result block: label 0
